system-under-test: tau (Homo sapiens)
assay-text: MCE Phenols Library screening, tau biosensor cell seeding assay (AvZ)
Assay type: cell-based
conditions: average Z score of the two replicates, tau biosensor seeding, MCE Phenols Library screen
readout-name: av Z
Hey, just send me the number, nothing else.

{"compound": "CC(=O)c1c(O)c(C)c(O)c2c1OC1=CC(=O)C(C(C)=O)C(=O)C12C (centres unmarked) [Usnic acid]", "reported": 1.097}
{"compound": "CC(=O)O[C@H](CC=C(C)C)C1=CC(=O)c2c(O)ccc(O)c2C1=O [Acetylshikonin]", "reported": 0.8}
{"compound": "OC[C@H]1O[C@@H](Oc2ccc(O)cc2)[C@H](O)[C@@H](O)[C@@H]1O [?-Arbutin]", "reported": 1.272}
{"compound": "Oc1ccc2c(c1)OC[C@H]1c3cc4c(cc3O[C@@H]21)OCO4 [(-?)?-Maackiain]", "reported": 0.883}
{"compound": "COc1ccc(-c2oc3c(CC=C(C)C)c(O)cc(O)c3c(=O)c2O[C@@H]2O[C@@H](C)[C@H](O)[C@@H](O)[C@H]2O)cc1 [Baohuoside I]", "reported": 1.24}

IN: Looking for the measured av Z of O=C(O)c1cc(O)c2cccc(O)c2n1 [Xanthurenic acid] , can you help?
OUT: 1.16

IN: And for O=C(O)[C@H]1O[C@@H](Oc2c(-c3ccc(O)c(O)c3)oc3cc(O)cc(O)c3c2=O)[C@H](O)[C@@H](O)[C@@H]1O [Miquelianin] ?
OUT: 0.908

IN: And for COc1cc(OC)c2c(=O)cc(-c3ccc(O)c(O)c3)oc2c1 [5,7-Dimethoxyluteolin] ?
OUT: 1.856

====

system-under-test: tau (Homo sapiens, UniProt P10636)
Sequence (P10636 623-695 limits assumed): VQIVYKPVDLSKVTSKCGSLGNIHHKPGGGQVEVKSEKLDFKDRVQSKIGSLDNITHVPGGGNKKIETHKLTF
assay-text: MCE Phenols Library screening, tau biosensor cell seeding assay (AvZ)
Assay type: cell-based
conditions: Z score, replicate 1
readout-name: Z repl 1
Hey, just send me the number, nothing else.

Use the examples below as a reference point.
{"compound": "O=C1c2ccccc2C(=O)c2c1cc(O)c(CO)c2O [Lucidin]", "Z repl 1": 0.331}
{"compound": "NCCc1ccc(O)cc1 [Tyramine]", "Z repl 1": -0.244}
{"compound": "NCCCN(CCCCNCCCNC(=O)CCc1ccc(O)c(O)c1)C(=O)CCc1ccc(O)c(O)c1 [Kukoamine B]", "Z repl 1": -1.263}

IN: Looking for the measured Z repl 1 of Oc1ccc([C@H]2COc3cc(O)ccc3C2)cc1 [(-)-(S)-Equol] , can you help?
OUT: 0.447

IN: And for O=C(O)CC(O)(CC(=O)OCc1ccc(O[C@@H]2O[C@H](CO)[C@@H](O)[C@H](O)[C@H]2O)cc1)C(=O)O (some centres unmarked) [Parishin E] ?
OUT: -1.04

IN: And for C=C(C)[C@H](CC=C(C)C)Cc1c(O)cc(O)c2c1O[C@H](c1ccc(O)cc1OC)CC2=O [Leachianone A] ?
OUT: -0.298

IN: And for CC(C)=CCC[C@]1(C)C=Cc2c(O)c3c(c(CC=C(C)C)c2O1)O[C@]12C(=C[C@@H]4C[C@H]1C(C)(C)O[C@@]2(C/C=C(/C)C(=O)O)C4=O)C3=O [Gambogic acid] ?
OUT: -2.192

IN: And for O=C(O)c1cc(O)c2c(c1)C(=O)c1cccc(O[C@@H]3O[C@H](CO)[C@@H](O)[C@H](O)[C@H]3O)c1C2=O [Rhein 8-Glucoside] ?
OUT: 0.64

====

system-under-test: tau (Homo sapiens)
assay-text: MCE Phenols Library screening, tau biosensor cell seeding assay (AvZ)
Format: cell-based
conditions: puncta, replicate 1
The compounds listed here are annotated with their raw data 1.
Hey, just send me the number, nothing else.

Use the examples below as a reference point.
{"compound": "COc1cc(CC(=O)O)ccc1O [Homovanillic acid]", "raw data 1": 22315.8}
{"compound": "O=C(O)c1ccc(O)c(O)c1 [Protocatechuic acid]", "raw data 1": 15212.3}
{"compound": "Cc1cc(O)c2c(=O)c3c(O)cc(O)c4c5c(O)cc(O)c6c(=O)c7c(O)cc(C)c8c1c2c(c34)c(c78)c65 [Hypericin]", "raw data 1": 10216.3}
{"compound": "O=C1C[C@@H](c2ccc(O)c(O)c2)Oc2c1ccc(O[C@@H]1O[C@H](CO)[C@@H](O)[C@H](O)[C@H]1O)c2O [Flavanomarein]", "raw data 1": 15599.3}

IN: Looking for the measured raw data 1 of OC[C@H]1O[C@@H](Oc2cc3c(O)cc(O)cc3[o+]c2-c2cc(O)c(O)c(O)c2)[C@H](O)[C@@H](O)[C@@H]1O.[Cl-] [Delphinidin 3-glucoside (chloride)] , can you help?
OUT: 11598.4

IN: And for O=C(O)C[C@@H]1C(=O)O[C@H]2[C@H](OC(=O)c3cc(O)c(O)c(O)c3)[C@@H](OC(=O)c3cc(O)c(O)c4c3[C@H]1[C@H](O)C(=O)O4)[C@H](OC(=O)c1cc(O)c(O)c(O)c1)O[C@@H]2COC(=O)c1cc(O)c(O)c(O)c1 [Chebulinic acid] ?
OUT: 108.91

====

system-under-test: UniProt P10636
assay-text: MCE Phenols Library screening, tau biosensor cell seeding assay (AvZ)
Format: cell-based
conditions: average Z score of the two replicates, tau seeding
Binary label based on av Z with cut-off 0.2: below gives criterion met, not below gives criterion not met.

These solved cases illustrate the format of a correct answer.
{"molecule": "CN(C)[C@@H]1C(O)=C(C(N)=O)C(=O)[C@@]2(O)C(O)=C3C(=O)c4c(O)cccc4[C@@](C)(O)[C@H]3C[C@@H]12.Cl [Tetracycline (hydrochloride)]", "system-under-test": "UniProt P10636", "category": "criterion not met"}
{"molecule": "C[C@@H]1O[C@@H](O[C@H]2C(=O)c3c(O)cc(O)cc3O[C@H]2c2ccc(O)c(O)c2)[C@H](O)[C@H](O)[C@H]1O", "system-under-test": "UniProt P10636", "category": "criterion not met"}

IN: Determine if `C=C(C)[C@H](CC=C(C)C)Cc1c(O)cc(OC)c2c1O[C@H](c1ccc(O)cc1OC)CC2=O` shows av Z strictly lower than 0.2.
OUT: criterion not met

IN: And for O=c1cc(-c2ccc(O)cc2)oc2cccc(O)c12 [4',5-Dihydroxyflavone] ?
OUT: criterion not met

IN: And for OC[C@H]1O[C@@H](Oc2cc(O)cc(/C=C/c3ccc(O)cc3)c2)[C@H](O)[C@@H](O)[C@@H]1O (mixture of isomers) [(E/Z)-Polydatin] ?
OUT: criterion met

====

system-under-test: tau (Homo sapiens)
assay-text: MCE Phenols Library screening, tau biosensor cell seeding assay (AvZ)
Format: cell-based
conditions: average Z score of the two replicates, MCE Phenols Library screen
Think of -0.8 as a floor: if av Z stands on it or above, it is Condition met; beneath it, Condition not met.

These solved cases illustrate the format of a correct answer.
{"compound": "COc1ccc(-c2oc3c(CCC(C)(C)O)c(O)cc(O)c3c(=O)c2O)cc1 [Wushanicaritin]", "category": "Condition met"}
{"compound": "CC(=O)c1cc2c(CO)cc(O)cc2oc1=O [Armillarisin A]", "category": "Condition met"}
{"compound": "O=c1c(O[C@@H]2O[C@H](CO)[C@H](O)[C@H](O)[C@H]2O)c(-c2ccc(O)c(O)c2)oc2cc(O)cc(O)c12 [Hyperoside]", "category": "Condition met"}
{"compound": "O=C(OC[C@H]1OC(OC(=O)c2cc(O)c(O)c(O)c2)[C@H](OC(=O)c2cc(O)c(O)c(O)c2)[C@@H](OC(=O)c2cc(O)c(O)c(O)c2)[C@@H]1O)c1cc(O)c(O)c(O)c1 (stereo partly drawn) [1,2,3,6-Tetragalloylglucose]", "category": "Condition not met"}
{"compound": "O=c1cc(-c2ccc(O)cc2)oc2cc(O)c([C@@H]3O[C@H](CO)[C@@H](O)[C@H](O)[C@H]3O[C@@H]3OC[C@H](O)[C@H](O)[C@H]3O)c(O)c12 [Isovitexin 2''-O-arabinoside]", "category": "Condition met"}

IN: Would you say COc1cc(O)c2c(=O)c(OC)c(-c3ccc(OC)c(O)c3)oc2c1 [Ayanin] shows av Z at minimum -0.8?
OUT: Condition not met

IN: And for COc1cc(O)c2c(=O)cc(-c3ccc(O)c(O)c3)oc2c1 [Hydroxygenkwanin] ?
OUT: Condition met

IN: And for O=C(O[C@@H]1O[C@@H]2COC(=O)c3cc(O)c(O)c(O)c3-c3c(cc(O)c(O)c3O)C(=O)O[C@H]([C@H]1O)[C@@H]2O)c1cc(O)c(O)c(O)c1 [Corilagin] ?
OUT: Condition not met

IN: And for Cc1c(C)c2c(c(C)c1O)CC[C@@](C)(CCC[C@H](C)CCC[C@H](C)CCCC(C)C)O2 [?-Vitamin E] ?
OUT: Condition met

IN: And for O=C1c2cc(CO)cc(O)c2C(=O)c2c(O[C@@H]3O[C@H](CO)[C@@H](O)[C@H](O)[C@H]3O)cccc21 [Aloe-emodin-8-O-?-D-glucopyranoside] ?
OUT: Condition met

All values here come from paper PMC11784839.
